System: CEM cells HIV-1 protection, formazan growth assay
Experiment: NCI AIDS Antiviral Assay
Calls of active or inactive are those of the source.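 Rule for the calls: active = compounds giving half or more protection of infected cells from virus-caused growth loss, again on retest; inactive = the rest.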
MEASUREMENT KIND: outcome

Any idea what its outcome is? The molecule is COc1cc2c(c(OC)c1OC)CCNC2C1=C(O)COC1=O (stereo not given) inactive

I'd like to know its outcome. The molecule in question is COC1OC2=CCC3C(=O)N(c4ccccc4)C(=O)C3C2[C@H](OCc2ccccc2)C1OCc1ccccc1 (stereo not given in full) inactive

Value lookup for outcome; key = Nc1ccn(C2OC(C(O)CO)C(O)C2O)c(=O)n1 (stereo not given) inactive

For the molecule shown here, `O=c1ccn(COC(COCc2ccccc2)COCc2ccccc2)c(=O)[nH]1` , give the reported outcome. inactive

Next molecule, please.
# query: outcome of entry `CN(C)C(=S)/N=c1\ss/c(=N\S(=O)(=O)c2ccccc2)n1N(C)C` inactive

* * *

Assignment: determine reported IC50 for the given compounds.
Test system: CEM cells HIV-1 protection, formazan growth assay
Assay: NCI AIDS Antiviral Assay
Conditions: measured here: growth of uninfected CEM cells
# unit: µM | format: bare number

Need IC50, item `COc1ccc(-c2c(O)c3cccc(-c4ccccc4)c3oc2=O)cc1` 93.3

Value lookup for IC50; key = `Cc1cc(-c2ccc(C(=O)C(c3ccccc3)(c3ccccc3)c3ccccc3)[nH]2)on1` 18.6

// lookup IC50 for COC1/C=C/OC2(C)Oc3c(C)c(O)c4c(O)c(c(/C=N/N5C(C)CN(Cc6ccc(NC(C)=O)cc6)CC5C)c(O)c4c3C2=O)NC(=O)C(C)=C/C=C/C(C)C(O)C(C)C(O)C(C)C(OC(C)=O)C1C (centres undefined) 9.12

* * *

Exercise: for every item that follows, state its recorded IC50.
System: CEM cells HIV-1 protection, formazan growth assay
Experiment: NCI AIDS Antiviral Assay
Conditions: measured here: growth of uninfected CEM cells
Experimental: The ability of compounds to protect human CEM cells from HIV-1 infection is measured as a screen for new compounds capable of inhibiting the HIV virus. Five concentrations of drug were tested on uninfected and infected cells and cell growth was measured using a soluble formazan assay. […] Compounds that provided at least 50% protection were retested. Compounds that provided at least 50% protection on retest were listed as moderately active. […]

Name the reported IC50 value associated with the compound COC(=O)/C=C(C)/C=C\COC1CCCCO1 (configuration not stated) > 200 µM

// query IC50 value for entry `CCCCNC(=O)Sc1ccccc1C(=O)NCCC(N)=O` 117 µM

// lookup IC50 for `C#CC(C)(C)Oc1ccc2c(=O)c(-c3ccc(OC)c(OC)c3)coc2c1` 22.4 µM

Data request, read-out IC50, for OC1C2CN3CCN(C2)CC1(c1ccccc1)C3 (configuration not stated) > 200 µM

Would you kindly share the measured IC50 for Cc1ccc([N+](=O)[O-])c2c(NCC(O)CO)ccnc12 (configuration not stated) ? 26.3 µM

What does the data say about its IC50? Entry: CN1CCCC1c1cccnc1 (configuration not stated) > 200 µM

For the compound shown here, `N#C[C@](CO)(NC(=O)OCc1ccccc1)C(F)F` , give the reported IC50. > 200 µM

// lookup IC50 for COC(=O)C(C)(C)C(OP1(=S)OCCN1C)=C(C)C (configuration not stated) > 117 µM

Given `CC(=Nc1ccccc1C(=O)O)c1c(O)ccc2c(C)cc(=O)oc12` , state its recorded IC50. > 107 µM

Suppose we examine the compound `O=P1(N2CCOCC2)OCCO1` ; what IC50 value has been reported? > 200 µM

Data request, read-out IC50, for `COc1ccc2ccccc2c1C1=NC(C)(C)CO1` 479 µM

Quick one: IC50 of O[C@@H]1[C@H]2CC(OCc3ccccc3)C[C@H]2C[C@@H]1O (some centres not stated) ? > 1000 µM

* * *

Test system: CEM cells HIV-1 protection, formazan growth assay
Assay: NCI AIDS Antiviral Assay
Conditions: measured here: growth of uninfected CEM cells
Please provide measured pIC50 for the entries that follow.
Convention used: pIC50 is expressed as -log10 of the molar concentration.

Hello, I am looking for reported pIC50 with CEM cells HIV-1 protection, formazan growth assay for O=C(Nc1cccc([N+](=O)[O-])c1)C(=O)C(C(=O)c1ccccc1-c1ccccc1)C1OC(=O)c2ccccc21 (centres undefined) . Could you help? 4.48

Lab note: need pIC50 for `O=C(Nc1ccccc1)c1c(O)[nH]c(=S)[nH]c1=O` on CEM cells HIV-1 protection, formazan growth assay, anyone have it? 4.67

Enter reported pIC50 observed with CEM cells HIV-1 protection, formazan growth assay for `CCN(CC)CCNc1ccc(C)c2sc3ccccc3c(=O)c12` 4.96

Entry Clc1c(Cl)c(Cl)c2c(nnn2C2CCCO2)c1Cl (centres undefined) , system CEM cells HIV-1 protection, formazan growth assay: what pIC50 was measured? 4.48

Which measured pIC50 belongs to `CN(C)CCNc1ccc(NCC[N+](C)(C)Cc2ccc([N+](=O)[O-])cc2)c2c1C(=O)c1c(O)ccc(O)c1C2=O` , tested on CEM cells HIV-1 protection, formazan growth assay? 6.05

For CEM cells HIV-1 protection, formazan growth assay, provide pIC50 of Cc1ccc(SCC(CF)OCn2cc(F)c(=O)[nH]c2=O)cc1 (centres undefined) please. 3.91

* * *

System: CEM cells HIV-1 protection, formazan growth assay
Assay: NCI AIDS Antiviral Assay
Conditions: measured here: growth of uninfected CEM cells
MEASUREMENT KIND: IC50

Form field: reported IC50 of `N#C/C(C(=O)Nc1ccc(Cl)cc1)=C(/N)N1CCCC1` > 200 µM

What does the record list as IC50 for `COc1ccc(OC)c(/C=C/NC=O)c1` ? > 200 µM

Record request: IC50 value, item `CN(C)C(=O)COc1ccc(Cl)cc1Cl` > 200 µM

Returns the measured IC50 for the input compound. Input: `CCc1n[nH]c(=O)[nH]1` > 200 µM

If you can, please state the reported IC50 value of CC(=O)OCC1OC(OC2C(COC(C)=O)OC(Sc3ccccc3C)C(OC(C)=O)C2OC(C)=O)C(OC(C)=O)C(OC(C)=O)C1OC(C)=O (configuration not stated) . > 25.1 µM

IC50 for `O=C(O)CN1C(=O)CSC1=S` ? 794 µM

Requested read-out: IC50. Entry: CC(Oc1ccc(OCC2CCCCC2)cc1)C(=O)O (configuration not stated) 457 µM

Quick one: IC50 of `Nc1ncnc2c1ccn2C/C=C/CO` ? > 200 µM

So what's the measured IC50 for this one? `CC1=NS(=O)(=O)c2ccccc2N1` > 1260 µM

Looking for the measured IC50 of CC(=O)NC(C)(C)C1CC=C(C)CC1 (configuration not stated) , can you help? > 200 µM

I am curious: what IC50 value has been reported for `C=C1N(C=O)C(C)(C)N(O)C1(C)C` ? > 200 µM

Please give the measured IC50 for this compound: `CCCCCCN=Cc1c(O)c(O)c(C(C)C)c2cc(C)c(-c3c(C)cc4c(C(C)C)c(O)c(O)c(C=NCCCCCC)c4c3O)c(O)c12` 129 µM

* * *

Test system: CEM cells HIV-1 protection, formazan growth assay
Experiment: NCI AIDS Antiviral Assay;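 active = compounds giving half or more protection of infected cells from virus-caused growth loss, again on retest; inactive = the rest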
Assign a class; possible classes are active, inactive

In this assay, the call recorded for CCOC(=O)CSc1nnc(C(Sc2nc(-c3ccccc3)c(-c3ccccc3)[nH]2)C(C)C)n1-c1ccccc1 (centres undefined) was what? inactive

// outcome(item) with item = `CC(=O)O[C@H]1C#C/C=C\C#CC[C@@H]2C(=O)N[C@@H]12` inactive

How was O=C1OC(OC/C(Br)=C(\Br)COC2OC(=O)C(Cl)=C2Cl)C(Cl)=C1Cl (centres undefined) classified in this test? inactive

Look up the recorded call for Cn1cc(-c2ccc(CCOC3CCCCO3)cc2)c2c(C#N)cccc21 (centres undefined) in this test. inactive

Assay outcome for `O=C(O)CCC(CCC(=O)O)(C(=O)O)c1ccccc1` : what was it? inactive

Recorded call for `CCOC(=O)NC(=O)c1cn(CCSCCOC(=O)NCCCCCCNC(=O)OCCSCCn2cc(C(=O)NC(=O)OCC)c(=O)n(C)c2=O)c(=O)n(C)c1=O` ? inactive

What was the test verdict on `CCOC(=O)C(=CN1CCNC1=S)C(=O)OCC` ? inactive

Which result was noted for this compound in the test: `C[C@H](Nc1nc(N)c(N=O)c(=O)n1C)C(=O)O` inactive

Dear all, I need the recorded test outcome for NC(CSSCC(N)C(=O)O)C(=O)O (centres undefined) , thank you. inactive

Kindly provide the recorded test outcome for the following compound: `c1ccc(Cn2c(-c3ccc(-c4ccccc4)cc3)cc3ccccc32)cc1` inactive

Look up the recorded call for `CCOC1(OCC)C([N+](=O)[O-])=CC(=[N+]([O-])O)C=C1[N+](=O)[O-]` in this test. inactive

Returns: the outcome recorded for COC(OC)C1OC(CO)C(n2cc(F)c(=O)[nH]c2=O)C1O (centres undefined) in this assay. inactive

For `O=c1c2c(c1=O)-c1ccccc1CN2` , what call appears in the results of this test? inactive

Recorded test call requested for CC1(C)CC(=O)C(CC2C(=O)c3ccccc3C2=O)C(=O)C1C(=O)C(=O)Nc1cccc2ccc(O)cc12 (centres undefined) inactive

Identify the outcome logged in this assay for the compound shown: CCOC(=O)c1cc(C2CCN(c3ccccc3)C2=O)c(C(=O)/C=C(/C)N)[nH]1 (centres undefined) active

Could you check what this test reported for `CNC(=S)N/N=C(\C)c1ccc(OC)cc1O` ? inactive

For C/C=C(\C1CC(=O)N2CCc3c([nH]c4ccccc34)C2C1)[Si](C)(C)C (centres undefined) , which call appears in the assay record? inactive

Any idea what this test logged for `CCOC(=O)C1=C(O)c2ccccc2C(=O)C1=O` ? inactive

Dear all, I need the recorded test outcome for `Cn1c(=O)oc2nc(-c3ccccc3)cc(C(F)(F)F)c21` , thank you. inactive

What did the test return for `O=C(OCCN1CCCCC1)c1cc2ccccc2[nH]1` ? inactive

In this assay, the call recorded for `O=C(CC(=O)N(C(=O)c1ccccc1)c1ccc(Cl)cc1)N/N=C\c1cc(N=Nc2ccccc2Cl)ccc1O` was what? inactive

I'd appreciate the recorded outcome for `c1ccc(Nc2nnc(CCCCCCCCc3nnc(Nc4ccccc4)o3)o2)cc1` from this test. inactive

Outcome logged for `CC(=O)Oc1c(C)cc2c(c1C)C(C)(C)CN2C(=O)C(C)(C)C` in this assay: inactive

Record request — test call for `O=c1c2ccccc2oc2nc3cc(Cl)ccc3n12` inactive

Please let me know the test result on file for O=C1C=CC2=C3c4cc(O)c(O)cc4CC3(O)COC2=C1O (centres undefined) . inactive

What is the recorded call for this compound in the test? `C[Si](C)(C)O/C=C1\CCCCC1=O` inactive

Hey, what did the test say about CC(CNN=C(N)N)NN=C(N)N (centres undefined) ? inactive

Would you mind telling me which call this test gave O[C@@H]1[C@H]2CC(OCc3ccccc3)C[C@H]2C[C@@H]1O (some centres undefined) ? inactive

Check the results log: what was the call for CC(C)(C)[Si](C)(C)OCC1OC(n2ccc(=O)[nH]c2=O)C(O[Si](C)(C)C(C)(C)C)C1(CC#N)Sc1ccccc1 (centres undefined) ? inactive

What did the test return for `COC(=O)CP(=O)(OCC(F)(F)F)OCC(F)(F)F` ? inactive

// param item: `Nc1nc(Cl)cc2nsnc12` ; yields the recorded call inactive

GET /call?item= COc1ccc2c(c1)C1Oc3ccccc3CC1CO2 (centres undefined) returns the recorded outcome of this test. inactive

What call does the record list for N#CC(/C=C/c1ccccc1)Nc1ccccc1CO (centres undefined) ? inactive

Tell me the recorded outcome of this test for `CN(/N=C/c1ccccc1C(=O)O)C1=NCCCCN1` . inactive

What outcome does the record of this test show for `CN1C(=O)/C(=C2\SC(=O)N(CN3CCCCC3)C2=O)c2cc(Br)ccc21` ? inactive

# fetch the recorded call for `c1ccc(-c2nnc3sc4ccccc4n23)cc1` here inactive

Outcome? `N/C(=N/O)c1nsnc1/C(N)=N\O` inactive

Tell me the assay call for COc1cc(/C=c2\sc3n(c2=O)C(c2ccc(Cl)cc2)C2=C(CCCC2C)N=3)cc(OC)c1OC (centres undefined) please. inactive

I would be grateful if you could indicate the recorded call for CC1OC(OC2C(OC(=O)[C@]34CCC(C)(C)CC3C3=CCC5[C@@]6(C)C[C@H](O)[C@H](OC7OC(CO)C(O)C(O)C7N)[C@@](C)(C(=O)O)C6CC[C@@]5(C)C3(C)CC4)OCC(O)C2O)C(O)C(O)C1OC1OCC(O)C(O)C1O (some centres undefined) . inactive

Per the assay record, what outcome was assigned to COC(=O)C1C(=O)CC2C(C(=O)OC)C(=O)CC12 (centres undefined) ? inactive

Test call for this compound, please: `O=C(Nc1cccc(C(F)(F)F)c1)C(Cl)=C(Cl)Cl` inactive

Outcome? `COc1cccc(/C=C2\N=C(c3ccccc3)OC2=O)c1OC` inactive

Recorded call for `O=C1c2ccccc2SC[C@@H]2CCCN12` ? inactive

Name the outcome recorded for `S=c1nc[nH]c2nc[nH]c12` in the assay. inactive
